# Tested on: Caco-2, human colorectal carcinoma cells
# Test Description: Proliferation assay, Caco-2 (crystal violet)
# Format: cell-based
# Details: Homo sapiens, Caco-2, 96 h, Caco-2, 4 days; read-out: Inhibition of Caco-2 cell proliferation IC50
Reported Metric: pIC50
Give bare numbers, as −log10 of the molar value.

Check out these entries, answers already filled in.
- Molecule: "COc1cc(F)ccc1-c1cc(Nc2cc(CS(C)(=O)=NC(=O)C(F)(F)F)cc(C(F)(F)F)n2)ncc1F (single isomer, unassigned; (+))"
  Measured Target: "Caco-2, human colorectal carcinoma cells"
  Reported Metric: "pIC50"
  Value: 7.39
- Molecule: "COc1cc(F)ccc1-c1cc(Nc2cc(CS(C)(=N)=O)cc(C)n2)ncc1F (single isomer, unassigned; (+)) [Example 32]"
  Measured Target: "Caco-2, human colorectal carcinoma cells"
  Reported Metric: "pIC50"
  Value: 7.40
- Molecule: "CCOC(=O)N=S(C)(=O)Cc1cc(Nc2cc(-c3ccc(F)cc3OC)c(F)cn2)nc(OC)c1 (racemic)"
  Measured Target: "Caco-2, human colorectal carcinoma cells"
  Reported Metric: "pIC50"
  Value: 7.41
- Molecule: "CCNC(=O)N=S(C)(=O)Cc1ccnc(Nc2cc(-c3ccc(F)cc3OC)c(F)cn2)c1 (racemic)"
  Measured Target: "Caco-2, human colorectal carcinoma cells"
  Reported Metric: "pIC50"
  Value: 7.01
- Molecule: "COc1cc(F)ccc1-c1cc(Nc2cc(CS(C)(=N)=O)cc(Cl)n2)ncc1F (racemic)"
  Measured Target: "Caco-2, human colorectal carcinoma cells"
  Reported Metric: "pIC50"
  Value: 7.39
- Molecule: "COc1cc(F)ccc1-c1cc(Nc2cc(CS(C)(=O)=NC(=O)C(F)(F)F)cc(F)n2)ncc1F (racemic)"
  Measured Target: "Caco-2, human colorectal carcinoma cells"
  Reported Metric: "pIC50"
  Value: 7.37

Please go through the list and note pIC50 for each molecule.
1. CCS(=N)(=O)Cc1ccnc(Nc2cc(-c3ccc(F)cc3OC)c(F)cn2)c1 (racemic)
2. COc1cc(F)ccc1-c1cc(Nc2cc(CS(C)(=O)=NC(C)=O)ccn2)ncc1F (racemic)

7.28
6.92

Please go through the list and note pIC50 for each molecule.
1. CCOc1cc(F)ccc1-c1cc(Nc2cc(CS(C)(=O)=NC(=O)C(F)(F)F)cc(F)n2)ncc1F (racemic)
2. COc1cc(F)ccc1-c1cc(Nc2cc(CS(C)(=N)=O)cc(C(F)(F)F)n2)ncc1F (racemic) [Example 21]

1: 6.89; 2: 7.49

Please go through the list and note pIC50 for each molecule.
1. COc1cc(F)ccc1-c1cc(Nc2cc(CS(=N)(=O)CCO)ccn2)ncc1F (racemic)
2. CCOc1cc(F)ccc1-c1cc(Nc2cc(CS(C)(=N)=O)cc(F)n2)ncc1F (racemic) [Example 26]
3. COc1cc(F)ccc1-c1cc(Nc2cc(CS(C)(=N)=O)cc(F)n2)ncc1F (single isomer, unassigned; (-)) [Example 20]
4. COc1cc(F)ccc1-c1cc(Nc2cc(CS(C)(=O)=NC#N)ccn2)ncc1F (single isomer, unassigned)
5. COc1cc(F)ccc1-c1cc(Nc2cc(CS(C)(=N)=O)cc(C)n2)ncc1F (racemic) [Example 4]

1: 6.80; 2: 7.07; 3: 7.35; 4: 7.42; 5: 7.17
